system: BA/F3 cell line; assay: BA/F3 viability assay; settings: Mus musculus, BaF3, 48 h, read-out: BA/F3 IC50
pIC50: −log10 of the molar value.
readout-kind: pIC50

compound: CCc1cc(-c2cnc(NC(C)=O)nc2)ccc1N(C)c1cc2c(cn1)ncn2C [Compound 115]
pIC50: < 5.30
--
compound: CCc1cc(C2CN(C(=O)C(F)F)C2)ccc1N(C)c1cc2c(cn1)ncn2C [Compound 346]
pIC50: < 5.30
--
compound: CCc1cc(CNS(C)(=O)=O)c(F)cc1N(C)c1cc2c(cn1)ncn2C [Compound 325]
pIC50: < 5.30

Now let's try a different one.
Q: Provide one value: measured pIC50 of CCc1cc(CN(C)S(C)(=O)=O)cc(F)c1N(C)c1cc2c(cn1)ncn2C [Compound 356]
Result: 5.30 to 6.00

----------
Catalogue of IC50 readings, one per entry.
system: BA/F3 cell line; assay: BA/F3 viability assay; settings: Mus musculus, BaF3, 48 h, read-out: BA/F3 IC50

compound: CCc1cc(C2(C#N)CC2)ccc1N(C)c1cc2c(cn1)ncn2C [Compound 385]
system-tested: BA/F3 cell line
readout-kind: IC50
value-measured: 1 to 5 µM

Q: Name the recorded IC50 of the compound listed here: CCc1cc(C2=CCN(C(=O)CC#N)CC2)ccc1N(C)c1cc2c(cn1)ncn2C [Compound 195]
Result: 1 to 5 µM

Q: Given the compound CCc1cc(N2CC(C#N)C2)ncc1N(C)c1cc2c(cn1)ncn2C [Compound 402] , write its reported IC50.
Result: 1 to 5 µM

Q: Input CN(c1cc2c(cn1)ncn2C)c1ccc(CNS(C)(=O)=O)cc1F [Compound 269] , output reported IC50.
Result: > 5 µM

Q: Name the recorded IC50 of the compound listed here: CCc1cc(C2=CCN(C(=O)C(F)F)CC2)ccc1N(C)c1cc2c(cn1)ncn2C [Compound 197]
Result: 1 to 5 µM

Q: Check the records and state IC50 for CCc1cc(CNS(=O)(=O)N2CCCCC2)ccc1N(C)c1cc2c(cn1)ncn2C [Compound 243]
Result: 1 to 5 µM

Q: Fill in reported IC50 for this entry: CN(c1cc2c(cn1)ncn2C)c1c(F)cc(CC#N)cc1F [Compound 405]
Result: 1 to 5 µM

----------
biological target: human TYK2 (Homo sapiens); construct: catalytic domain (amino acids 871-1187; catalog number 08-147); assay: TYK2 inhibition assay; conditions: recombinant human TYK2 catalytic domain, polyGT substrate
Sequence (P29597 871-1187): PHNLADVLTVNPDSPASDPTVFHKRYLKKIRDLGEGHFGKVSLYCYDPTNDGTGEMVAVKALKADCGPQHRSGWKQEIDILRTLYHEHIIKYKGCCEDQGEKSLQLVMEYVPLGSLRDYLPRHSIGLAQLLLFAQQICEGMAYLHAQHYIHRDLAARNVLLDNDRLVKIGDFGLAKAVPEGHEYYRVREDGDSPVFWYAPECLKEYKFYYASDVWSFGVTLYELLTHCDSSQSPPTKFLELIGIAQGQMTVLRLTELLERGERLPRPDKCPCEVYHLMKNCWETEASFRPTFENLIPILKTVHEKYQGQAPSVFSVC
readout-kind: IC50

compound: CCc1cc(C(C)O)ccc1N(C)c1cc2c(cn1)ncn2C (centres unmarked) [Compound 101]
value-measured: 0.01 to 100 nM

Q: Provide IC50, recorded with human TYK2 (Homo sapiens), of CCc1cc(C2CN(S(=O)(=O)CC#N)C2)ccc1N(C)c1cc2c(cn1)ncn2C [Compound 353]
Result: 0.01 to 100 nM

Q: # return IC50 for CN(c1ccc(OC(F)(F)F)cc1)c1cc2c(cn1)ncn2C [Compound 1] , test system: human TYK2 (Homo sapiens)
Result: > 1000 nM

Q: Report value: IC50, system: human TYK2 (Homo sapiens), compound: CCc1cc(C2=CCN(C(=O)CCC#N)CC2)ccc1N(C)c1cc2c(cn1)ncn2C [Compound 196]
Result: 0.01 to 100 nM

Q: # assay system human TYK2 (Homo sapiens): give IC50 of CCc1cc(-c2cccs2)ncc1N(C)c1cc2c(cn1)ncn2C [Compound 289]
Result: 0.01 to 100 nM
